- settings: human gut metagenome, 24 h, 2 µM; further: call rule not given here

molecule: CN1CCN2c3ccccc3Cc3ccccc3C2C1 (stereo unspecified)
Bacterial Biotransformation: Compound NOT metabolized
//
molecule: CC(=O)Oc1ccc(C(c2ccc(OC(C)=O)cc2)c2ccccn2)cc1
Bacterial Biotransformation: Compound metabolized
//
molecule: COc1cc2nc(N3CCN(C(=O)C4COc5ccccc5O4)CC3)nc(N)c2cc1OC.CS(=O)(=O)O (stereo unspecified) [DOXAZOSIN MESYLATE]
Bacterial Biotransformation: Compound metabolized
//
molecule: CNCC[C@H](Oc1cccc2ccccc12)c1cccs1
Bacterial Biotransformation: Compound NOT metabolized
//
molecule: COc1ccc2cc([C@H](C)C(=O)O)ccc2c1
Bacterial Biotransformation: Compound metabolized
//
molecule: CCN(CC)C(=O)C1(c2ccccc2)CC1CN (stereo unspecified)
Bacterial Biotransformation: Compound NOT metabolized
//
molecule: Cc1cc(C)cc(OCC2CNC(=O)O2)c1 (stereo unspecified)
Bacterial Biotransformation: Compound metabolized
//
molecule: CCc1oc2ccccc2c1C(=O)c1cc(Br)c(O)c(Br)c1
Bacterial Biotransformation: Compound metabolized
//
molecule: CC(C)(C)NC[C@H](O)COc1nsnc1N1CCOCC1.O=C(O)/C=C\C(=O)O [TIMOLOL MALEATE]
Bacterial Biotransformation: Compound NOT metabolized
//
molecule: CN(C)C(=O)Oc1cc(OC(=O)N(C)C)cc(C(O)CNC(C)(C)C)c1 (stereo unspecified)
Bacterial Biotransformation: Compound NOT metabolized
//
molecule: CCOC(=O)C1=C[C@]2(CC)CCCN3CCc4c(n1c1ccccc41)[C@@H]32
Bacterial Biotransformation: Compound metabolized

====

- experiment: The drug is tested on WLS-310 corresponding to human gut metagenome with ENA study accession number: PRJEB37062 and ENA sample accession number: ERS12561785 for biotransformation under anaerobic condition. The drug concentrations were measured over 9 timepoints collected between 0 and 24 hours of incubation by liquid-chromatography-coupled mass spectrometry (LC–MS)
- settings: 2 µM

molecule: CN1[C@@H]2CC[C@H]1C[C@@H](OC(=O)c1c[nH]c3ccccc13)C2
Bacterial Biotransformation: Compound NOT metabolized

molecule: O=P1(N(CCCl)CCCl)NCCCO1 (configuration not stated) [CYCLOPHOSPHAMIDE ANHYDROUS]
Bacterial Biotransformation: Compound metabolized

molecule: COc1cc(NC(C)CCCN)c2ncccc2c1.O=P(O)(O)O.O=P(O)(O)O (configuration not stated) [PRIMAQUINE PHOSPHATE]
Bacterial Biotransformation: Compound NOT metabolized

molecule: N#Cc1ccc2c(c1)N(CCCN1CCC(O)CC1)c1ccccc1S2
Bacterial Biotransformation: Compound metabolized

molecule: CN(C/C=C/C#CC(C)(C)C)Cc1cccc2ccccc12
Bacterial Biotransformation: Compound metabolized

molecule: COc1cc2nc(N3CCN(C(=O)C4CCCO4)CC3)nc(N)c2cc1OC (configuration not stated)
Bacterial Biotransformation: Compound metabolized

molecule: COC1=C(OC)C(=O)C(CCCCCCCCCCO)=C(C)C1=O
Bacterial Biotransformation: Compound metabolized

molecule: CC(C)c1c(CN(C)C(C)Cc2ccccc2)n(C)n(-c2ccccc2)c1=O (configuration not stated)
Bacterial Biotransformation: Compound metabolized

molecule: CC(=O)O[C@H]1C(=O)[C@@]2(C)[C@H]([C@H](OC(=O)c3ccccc3)[C@]3(O)C[C@H](OC(=O)[C@H](O)[C@@H](NC(=O)c4ccccc4)c4ccccc4)C(C)=C1C3(C)C)[C@]1(OC(C)=O)CO[C@@H]1C[C@@H]2O
Bacterial Biotransformation: Compound NOT metabolized

molecule: CC(=O)O[C@]1(C(C)=O)CC[C@H]2[C@@H]3C=C(C)C4=CC(=O)CC[C@]4(C)[C@H]3CC[C@@]21C [MEGESTROL ACETATE]
Bacterial Biotransformation: Compound metabolized

molecule: O=C1C(CC[S+]([O-])c2ccccc2)C(=O)N(c2ccccc2)N1c1ccccc1 (configuration not stated)
Bacterial Biotransformation: Compound metabolized

molecule: COCCCC/C(=N\OCCN)c1ccc(C(F)(F)F)cc1.O=C(O)/C=C\C(=O)O [FLUVOXAMINE MALEATE]
Bacterial Biotransformation: Compound metabolized

molecule: CCOc1ccccc1OCCN[C@H](C)Cc1ccc(OC)c(S(N)(=O)=O)c1.Cl [TAMSULOSIN HYDROCHLORIDE]
Bacterial Biotransformation: Compound NOT metabolized

molecule: CC(=O)Oc1ccc(C(c2ccc(OC(C)=O)cc2)c2ccccn2)cc1
Bacterial Biotransformation: Compound metabolized

molecule: C#C[C@]1(OC(C)=O)CC[C@H]2[C@@H]3CCC4=C[C@@H](OC(C)=O)CC[C@@H]4[C@H]3CC[C@@]21C [ETHYNODIOL DIACETATE]
Bacterial Biotransformation: Compound metabolized

molecule: CC(CCc1ccccc1)NCC(O)c1ccc(O)c(C(N)=O)c1 (configuration not stated)
Bacterial Biotransformation: Compound NOT metabolized

molecule: COc1ccnc(C[S+]([O-])c2nc3ccc(OC(F)F)cc3[nH]2)c1OC (configuration not stated)
Bacterial Biotransformation: Compound metabolized

molecule: COc1ccc(Cc2nccc3cc(OC)c(OC)cc23)cc1OC
Bacterial Biotransformation: Compound metabolized

molecule: CC(=O)OCC(=O)[C@@]1(OC(C)=O)[C@@H](C)C[C@H]2[C@@H]3C[C@H](F)C4=CC(=O)C=C[C@]4(C)[C@@]3(F)[C@@H](O)C[C@@]21C [DIFLORASONE DIACETATE]
Bacterial Biotransformation: Compound metabolized

molecule: N#Cc1ccc2[nH]cc(CCCCN3CCN(c4ccc5oc(C(N)=O)cc5c4)CC3)c2c1
Bacterial Biotransformation: Compound metabolized

molecule: Cc1ccccc1C(OCCN(C)C)c1ccccc1.O=C(O)CC(O)(CC(=O)O)C(=O)O (configuration not stated) [ORPHENADRINE CITRATE]
Bacterial Biotransformation: Compound NOT metabolized

molecule: CCN(CC)CCOC(=O)C1(C2CCCCC2)CCCCC1
Bacterial Biotransformation: Compound metabolized

====

- settings: human gut metagenome, 24 h, 2 µM

compound: CCN(C(C)=O)c1cccc(-c2ccnc3c(C#N)cnn23)c1 [ZALEPLON]
Bacterial Biotransformation: Compound metabolized

compound: N#Cc1ccc2c(c1)N(CCCN1CCC(O)CC1)c1ccccc1S2 [PERICIAZINE]
Bacterial Biotransformation: Compound metabolized

compound: CC(=O)O[C@]1(C(C)=O)CC[C@H]2[C@@H]3C=C(C)C4=CC(=O)CC[C@]4(C)[C@H]3CC[C@@]21C [MEGESTROL ACETATE]
Bacterial Biotransformation: Compound metabolized

compound: C[C@]12C=CC(=O)C=C1CC[C@@H]1[C@@H]2C(=O)C[C@@]2(C)[C@H]1CC[C@]2(O)C(=O)CO [PREDNISONE]
Bacterial Biotransformation: Compound metabolized

compound: CN(C)CCOC(C)(c1ccccc1)c1ccccn1.O=C(O)CCC(=O)O (stereo not given) [DOXYLAMINE SUCCINATE]
Bacterial Biotransformation: Compound NOT metabolized

compound: COc1ccc(CN2CCNCC2)c(OC)c1OC.Cl.Cl [TRIMETAZIDINE DIHYDROCHLORIDE]
Bacterial Biotransformation: Compound NOT metabolized

compound: CC(C)[C@H]1CC[C@H](C(=O)N[C@H](Cc2ccccc2)C(=O)O)CC1 [NATEGLINIDE]
Bacterial Biotransformation: Compound metabolized

compound: CCOc1ccccc1OCCN[C@H](C)Cc1ccc(OC)c(S(N)(=O)=O)c1.Cl [TAMSULOSIN HYDROCHLORIDE]
Bacterial Biotransformation: Compound NOT metabolized

compound: COc1cc(C(=O)NCc2ccc(OCCN(C)C)cc2)cc(OC)c1OC [TRIMETHOBENZAMIDE]
Bacterial Biotransformation: Compound NOT metabolized

compound: CN1CCN(C2=Nc3ccccc3Oc3ccc(Cl)cc32)CC1.O=C(O)CCC(=O)O [LOXAPINE SUCCINATE]
Bacterial Biotransformation: Compound NOT metabolized

====

- settings: human gut metagenome, 24 h, 2 µM
experimental.readout: Bacterial Biotransformation

compound: COc1ccc(CN2CCNCC2)c(OC)c1OC.Cl.Cl [TRIMETAZIDINE DIHYDROCHLORIDE]
value.measured: Compound NOT metabolized
//
compound: CC(C)C[C@H]1C(=O)N2CCC[C@H]2[C@]2(O)O[C@](NC(=O)[C@@H]3C=C4c5cccc6[nH]c(Br)c(c56)C[C@H]4N(C)C3)(C(C)C)C(=O)N12.CS(=O)(=O)O [BROMOCRIPTINE MESYLATE]
value.measured: Compound NOT metabolized
//
compound: CCOc1cc(CC(=O)N[C@@H](CC(C)C)c2ccccc2N2CCCCC2)ccc1C(=O)O [REPAGLINIDE]
value.measured: Compound NOT metabolized

====

- settings: human gut metagenome, 24 h, 2 µM

compound: CC(=O)OCC(=O)[C@@]1(OC(C)=O)[C@@H](C)C[C@H]2[C@@H]3C[C@H](F)C4=CC(=O)C=C[C@]4(C)[C@@]3(F)[C@@H](O)C[C@@]21C [DIFLORASONE DIACETATE]
Bacterial Biotransformation: Compound metabolized
//
compound: O=C(CCCN1CCC2(CC1)C(=O)NCN2c1ccccc1)c1ccc(F)cc1 [SPIPERONE]
Bacterial Biotransformation: Compound metabolized
//
compound: COc1ccccc1OCCNCC(O)COc1cccc2[nH]c3ccccc3c12 (stereo not given) [CARVEDILOL]
Bacterial Biotransformation: Compound metabolized
//
compound: O=C1CC2(CCCC2)CC(=O)N1CCCCN1CCN(c2ncccn2)CC1 [BUSPIRONE]
Bacterial Biotransformation: Compound metabolized
